- test target: VIM-38 (Pseudomonas aeruginosa, UniProt A0A0F7KYQ8, A128K/A265V/E202A/H201L/K257T/S205R)
- Construct: The N- and C- terminal residues of the mature enzymes are labelled 26; His6 with HRV3C cleavage site (pET-28a) (N, cleaved yes); made in house; host or cells: E. coli BL21(DE3)
- method: Steady-state kinetics of β-lactam substrate hydrolysis
- Assay type: biochemical
- stated conditions: read-out: Mean Km ± SD VIM-38; 50 mM HEPES pH 7.2; apparent for ampicillin and ceftazidime
endpoint name: Km

Reference set (5 entries):
CO[C@@]1(NC(=O)Cc2cccs2)C(=O)N2C(C(=O)O)=C(COC(N)=O)CS[C@@H]21 [Cefoxitin]    230 µM
CC(=O)OCC1=C(C(=O)O)N2C(=O)[C@@H](NC(=O)Cc3cccs3)[C@H]2SC1 [Cephalothin]    60 µM
C[C@@H](O)[C@H]1C(=O)N2C(C(=O)O)=C(SCCN=CN)C[C@H]12 [Imipenem]    150 µM
O=C(Cc1cccs1)N[C@@H]1C(=O)N2C(C(=O)O)=C(/C=C/c3ccc([N+](=O)[O-])cc3[N+](=O)[O-])CS[C@H]12 [Nitrocefin]    70 µM
CC(C)(O/N=C(\C(=O)N[C@@H]1C(=O)N2C(C(=O)[O-])=C(C[n+]3ccccc3)CS[C@H]12)c1csc(N)n1)C(=O)O [Ceftazidime]    430 µM

Request: State the recorded Km for this entry: C[C@@H](O)[C@H]1C(=O)N2C(C(=O)O)=C(S[C@@H]3CN[C@H](C(=O)N(C)C)C3)[C@H](C)[C@H]12 [Meropenem]
Response: 30 µM

Request: Next entry: CC1(C)S[C@@H]2[C@H](NC(=O)[C@H](N)c3ccccc3)C(=O)N2[C@H]1C(=O)O [Ampicillin]
Response: 380 µM

----------
Reported kcat VIM-5 values for a set of molecules
- test target: VIM-5 (Pseudomonas aeruginosa, UniProt A0A0F7KYQ8, A128K/E202A/H201L/K257T/S205R)
- Construct: His6 with HRV3C cleavage site (pET-28a) (N, cleaved yes); made in house; host or cells: E. coli BL21(DE3)
- method: Steady-state kinetics of β-lactam substrate hydrolysis
- Format: biochemical
- stated conditions: 50 mM HEPES pH 7.2; apparent for ampicillin and ceftazidime
- Protocol: The hydrolysis of a representative panel of β-lactam substrates was monitored at their respective absorbance wavelengths. The wavelengths and extinction coefficients used were previously described ([34]). The assays were carried out using 50 mM HEPES buffer (pH 7.2) supplemented with 1 μg/ml bovine serum albumin (BSA), 1 μM ZnSO4, and 0.01% Triton X-100. […] The initial rates were obtained from the changes in absorbance at various substrate concentrations. […]
Provide the reading as a plain figure in s⁻¹.

For orientation, consider the following solved cases.
CO[C@@]1(NC(=O)Cc2cccs2)C(=O)N2C(C(=O)O)=C(COC(N)=O)CS[C@@H]21    460
CC(C)(O/N=C(\C(=O)N[C@@H]1C(=O)N2C(C(=O)[O-])=C(C[n+]3ccccc3)CS[C@H]12)c1csc(N)n1)C(=O)O    4
CC(=O)OCC1=C(C(=O)O)N2C(=O)[C@@H](NC(=O)Cc3cccs3)[C@H]2SC1    200
CC1(C)S[C@@H]2[C@H](NC(=O)[C@H](N)c3ccccc3)C(=O)N2[C@H]1C(=O)O    230

Attention now shifts to the item below.
Request: Form field - read-out: kcat VIM-5; system: VIM-5 (Pseudomonas aeruginosa, UniProt A0A0F7KYQ8, A128K/E202A/H201L/K257T/S205R); submitted item: O=C(Cc1cccs1)N[C@@H]1C(=O)N2C(C(=O)O)=C(/C=C/c3ccc([N+](=O)[O-])cc3[N+](=O)[O-])CS[C@H]12
Response: 420

----------
- test target: VIM-1 (Pseudomonas aeruginosa, UniProt A0A0F7KYQ8)
- Construct: The N- and C- terminal residues of the mature enzymes are labelled 26
- method: Inhibition of enzyme-mediated nitrocefin hydrolysis
- stated conditions: read-out: IC50 VIM-1 (H224, S228)
endpoint name: IC50

The following compounds have reported results that may help.
O=C(N[C@H](Cc1c[nH]c2ccccc12)C(=O)O)c1ncccc1O [compound 3]    50 µM
O=C(N[C@H](Cc1c[nH]c2ccccc12)C(=O)O)c1nc(Cl)c2ccccc2c1O [compound 1]    > 1000 µM

Note: attention shifts to another entry.
Request: Fill blank: measured IC50 of the compound O=C(N[C@@H](Cc1c[nH]c2ccccc12)C(=O)O)c1nc(Cl)c2ccccc2c1O [compound 2] is ____.
Response: 60 µM

----------
IC50 by entry:
- test target: VIM-5 (Pseudomonas aeruginosa, UniProt A0A0F7KYQ8, A128K/E202A/H201L/K257T/S205R)
- Construct: His6 with HRV3C cleavage site (pET-28a) (N, cleaved yes)
- method: Inhibition of enzyme-mediated nitrocefin hydrolysis
Output spec: scalar in µM, unitless text.

O=C(N[C@H](Cc1c[nH]c2ccccc12)C(=O)O)c1ncccc1O    50

Request: Query: IC50; subject: O=C(N[C@@H](Cc1c[nH]c2ccccc12)C(=O)O)c1nc(Cl)c2ccccc2c1O
Response: 50

Request: Next entry: O=C(N[C@H](Cc1c[nH]c2ccccc12)C(=O)O)c1nc(Cl)c2ccccc2c1O
Response: 2

----------
- test target: VIM-38 (Pseudomonas aeruginosa, UniProt A0A0F7KYQ8, A128K/A265V/E202A/H201L/K257T/S205R)
- Construct: The N- and C- terminal residues of the mature enzymes are labelled 26; His6 with HRV3C cleavage site (pET-28a) (N, cleaved yes)
- method: Inhibition of enzyme-mediated nitrocefin hydrolysis
endpoint name: IC50 (µM)
Provide the reading as a plain figure in µM.

O=C(N[C@@H](Cc1c[nH]c2ccccc12)C(=O)O)c1nc(Cl)c2ccccc2c1O [compound 2]    80

Request: For O=C(N[C@H](Cc1c[nH]c2ccccc12)C(=O)O)c1ncccc1O [compound 3] , what is its reported IC50?
Response: 50

Request: And for O=C(N[C@H](Cc1c[nH]c2ccccc12)C(=O)O)c1nc(Cl)c2ccccc2c1O [compound 1] ?
Response: 2

----------
- test target: VIM-4 (Pseudomonas aeruginosa, UniProt A0A0F7KYQ8, S205R)
- Construct: His6 (N, cleaved yes)
- method: Inhibition of enzyme-mediated nitrocefin hydrolysis; as to IC50 VIM-4 (H224, R228): 10 min preincubation
- stated conditions: read-out: IC50 VIM-4 (H224, R228)
endpoint name: pIC50
By convention, pIC50 is the negative base-10 log of a molar concentration.

Previously resolved entries follow.
O=C(N[C@H](Cc1c[nH]c2ccccc12)C(=O)O)c1ncccc1O    3.90
O=C(N[C@@H](Cc1c[nH]c2ccccc12)C(=O)O)c1nc(Cl)c2ccccc2c1O    3.22

Attention now turns to another entry.
Request: Can you look up the measured pIC50 of O=C(N[C@H](Cc1c[nH]c2ccccc12)C(=O)O)c1nc(Cl)c2ccccc2c1O for me?
Response: 3.70

----------
List of Km values.
- test target: VIM-5 (Pseudomonas aeruginosa, UniProt A0A0F7KYQ8, A128K/E202A/H201L/K257T/S205R)
- Construct: His6 with HRV3C cleavage site (pET-28a) (N, cleaved yes); made in house; host or cells: E. coli BL21(DE3)
- method: Steady-state kinetics of β-lactam substrate hydrolysis
- Type: biochemical
- stated conditions: read-out: Mean Km ± SD VIM-5; 50 mM HEPES pH 7.2; apparent for ampicillin and ceftazidime
Note: unit µM is implicit; provide only the numeric part.

Look over these answered cases.
C[C@@H](O)[C@H]1C(=O)N2C(C(=O)O)=C(S[C@@H]3CN[C@H](C(=O)N(C)C)C3)[C@H](C)[C@H]12 [Meropenem]    70
O=C(Cc1cccs1)N[C@@H]1C(=O)N2C(C(=O)O)=C(/C=C/c3ccc([N+](=O)[O-])cc3[N+](=O)[O-])CS[C@H]12 [Nitrocefin]    50
CC(=O)OCC1=C(C(=O)O)N2C(=O)[C@@H](NC(=O)Cc3cccs3)[C@H]2SC1 [Cephalothin]    100

Request: Endpoint output: Km of CC(C)(O/N=C(\C(=O)N[C@@H]1C(=O)N2C(C(=O)[O-])=C(C[n+]3ccccc3)CS[C@H]12)c1csc(N)n1)C(=O)O [Ceftazidime] . Value?
Response: 340

Request: Quick one: CO[C@@]1(NC(=O)Cc2cccs2)C(=O)N2C(C(=O)O)=C(COC(N)=O)CS[C@@H]21 [Cefoxitin]
Response: 320

----------
Below: a set of entries, each annotated with reported kcat VIM-38.
- test target: VIM-38 (Pseudomonas aeruginosa, UniProt A0A0F7KYQ8, A128K/A265V/E202A/H201L/K257T/S205R)
- Construct: The N- and C- terminal residues of the mature enzymes are labelled 26; His6 with HRV3C cleavage site (pET-28a) (N, cleaved yes); made in house; host or cells: E. coli BL21(DE3)
- method: Steady-state kinetics of β-lactam substrate hydrolysis
- Type: biochemical
- stated conditions: 50 mM HEPES pH 7.2; apparent for ampicillin and ceftazidime
- Protocol: The hydrolysis of a representative panel of β-lactam substrates was monitored at their respective absorbance wavelengths. The wavelengths and extinction coefficients used were previously described ([34]). The assays were carried out using 50 mM HEPES buffer (pH 7.2) supplemented with 1 μg/ml bovine serum albumin (BSA), 1 μM ZnSO4, and 0.01% Triton X-100. […] The initial rates were obtained from the changes in absorbance at various substrate concentrations. […]
Answer format: numeric, s⁻¹ implied, no suffix.

Request: Give its kcat VIM-38 value. Item: C[C@@H](O)[C@H]1C(=O)N2C(C(=O)O)=C(SCCN=CN)C[C@H]12 [Imipenem]
Response: 90

Request: Would you mind doing CC1(C)S[C@@H]2[C@H](NC(=O)[C@H](N)c3ccccc3)C(=O)N2[C@H]1C(=O)O [Ampicillin] as well?
Response: 170

Request: What do we get for C[C@@H](O)[C@H]1C(=O)N2C(C(=O)O)=C(S[C@@H]3CN[C@H](C(=O)N(C)C)C3)[C@H](C)[C@H]12 [Meropenem] ?
Response: 10

Request: Moving on to O=C(Cc1cccs1)N[C@@H]1C(=O)N2C(C(=O)O)=C(/C=C/c3ccc([N+](=O)[O-])cc3[N+](=O)[O-])CS[C@H]12 [Nitrocefin]
Response: 720
